Measured pIC50 by item
TARGET OR SYSTEM: USP25 (Homo sapiens)
Construct: purchased R&D Systems
Sequence (Q9UHP3 1-1055): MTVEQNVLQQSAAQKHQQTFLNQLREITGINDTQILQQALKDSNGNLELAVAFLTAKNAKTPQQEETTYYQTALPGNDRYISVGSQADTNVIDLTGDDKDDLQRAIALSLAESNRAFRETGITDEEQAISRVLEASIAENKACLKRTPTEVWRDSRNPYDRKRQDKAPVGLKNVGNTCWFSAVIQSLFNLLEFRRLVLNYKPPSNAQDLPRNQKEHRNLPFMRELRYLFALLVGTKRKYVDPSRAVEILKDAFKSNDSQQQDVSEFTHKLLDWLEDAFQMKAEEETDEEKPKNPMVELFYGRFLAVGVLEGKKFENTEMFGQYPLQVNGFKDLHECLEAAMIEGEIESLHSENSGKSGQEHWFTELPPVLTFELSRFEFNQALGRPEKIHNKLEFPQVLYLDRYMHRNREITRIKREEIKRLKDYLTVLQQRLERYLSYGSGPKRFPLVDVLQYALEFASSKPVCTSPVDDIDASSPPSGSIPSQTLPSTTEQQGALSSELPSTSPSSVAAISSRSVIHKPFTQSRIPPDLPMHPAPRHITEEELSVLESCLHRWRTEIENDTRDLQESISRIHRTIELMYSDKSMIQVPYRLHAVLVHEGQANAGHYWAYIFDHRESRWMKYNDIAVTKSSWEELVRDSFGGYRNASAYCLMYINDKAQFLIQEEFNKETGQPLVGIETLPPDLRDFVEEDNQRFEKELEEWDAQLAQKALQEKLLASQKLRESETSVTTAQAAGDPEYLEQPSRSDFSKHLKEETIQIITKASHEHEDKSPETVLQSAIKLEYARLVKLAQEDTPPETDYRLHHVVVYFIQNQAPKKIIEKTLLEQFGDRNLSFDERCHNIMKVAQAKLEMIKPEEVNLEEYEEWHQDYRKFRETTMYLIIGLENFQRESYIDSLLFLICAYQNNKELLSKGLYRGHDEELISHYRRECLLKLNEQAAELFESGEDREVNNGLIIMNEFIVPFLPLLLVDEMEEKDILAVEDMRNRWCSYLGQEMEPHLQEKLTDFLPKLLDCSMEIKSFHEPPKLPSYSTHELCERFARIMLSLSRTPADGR
PROTOCOL: USP25 activity measured using ubiquitin-rhodamine 110 method
Format: biochemical
ASSAY CONTEXT: purified USP25 15 nM, ubiquitin-rhodamine 110 125 nM, 30 min preincubation; read-out: Inhibitory activity against USP25 (IC50)
pIC50: −log10 of the molar value.

# COMPOUND, pIC50
records = [
    ("CNc1c(C(=O)NCCc2ccc(N3C[C@H]4CC[C@@H](C3)N4)cc2)sc2nc(N)ccc12 [Compound I-93]", "6.00 to 7.00"),
    ("CNc1c(C(=O)NCCc2c(F)cc(N3C[C@H]4CC[C@@H](C3)N4)cc2F)sc2nc(C)ccc12 [Compound I-45]", "< 5.00"),
    ("CNc1c(C(=O)NCCc2ccc(N3C[C@H]4CC[C@@H](C3)N4)cc2)sc2nccc(C)c12 [Compound I-20]", "6.00 to 7.00"),
    ("CNc1c(C(=O)NCCc2ccc(N3C[C@H]4CC[C@@H](C3)N4)cc2)sc2ncc(C)cc12 [Compound I-19]", "< 5.00"),
]

Query: Determine from records and report pIC50 for CNc1c(C(=O)NCCc2ccc(N3C[C@H]4CC[C@@H](C3)N4)cc2)sc2nccc(C(F)(F)F)c12 [Compound I-21]
Response: 5.30 to 6.00

Query: Tell me its pIC50 given CNc1c(C(=O)NCCc2ccc(N3C[C@H]4CC[C@@H](C3)N4)cc2)sc2nc(CO)ccc12 [Compound I-22] as the entry.
Response: 6.00 to 7.00

Query: Respond only with pIC50 recorded for CNc1c(C(=O)NCCc2ccc(N3C[C@H]4CC[C@@H](C3)N4)c(F)c2)sc2nc(C)ccc12 [Compound I-40]
Response: 6.00 to 7.00

====

List of pIC50 values.
TARGET OR SYSTEM: USP25 (Homo sapiens)
Construct: purchased R&D Systems
Sequence (Q9UHP3 1-1055): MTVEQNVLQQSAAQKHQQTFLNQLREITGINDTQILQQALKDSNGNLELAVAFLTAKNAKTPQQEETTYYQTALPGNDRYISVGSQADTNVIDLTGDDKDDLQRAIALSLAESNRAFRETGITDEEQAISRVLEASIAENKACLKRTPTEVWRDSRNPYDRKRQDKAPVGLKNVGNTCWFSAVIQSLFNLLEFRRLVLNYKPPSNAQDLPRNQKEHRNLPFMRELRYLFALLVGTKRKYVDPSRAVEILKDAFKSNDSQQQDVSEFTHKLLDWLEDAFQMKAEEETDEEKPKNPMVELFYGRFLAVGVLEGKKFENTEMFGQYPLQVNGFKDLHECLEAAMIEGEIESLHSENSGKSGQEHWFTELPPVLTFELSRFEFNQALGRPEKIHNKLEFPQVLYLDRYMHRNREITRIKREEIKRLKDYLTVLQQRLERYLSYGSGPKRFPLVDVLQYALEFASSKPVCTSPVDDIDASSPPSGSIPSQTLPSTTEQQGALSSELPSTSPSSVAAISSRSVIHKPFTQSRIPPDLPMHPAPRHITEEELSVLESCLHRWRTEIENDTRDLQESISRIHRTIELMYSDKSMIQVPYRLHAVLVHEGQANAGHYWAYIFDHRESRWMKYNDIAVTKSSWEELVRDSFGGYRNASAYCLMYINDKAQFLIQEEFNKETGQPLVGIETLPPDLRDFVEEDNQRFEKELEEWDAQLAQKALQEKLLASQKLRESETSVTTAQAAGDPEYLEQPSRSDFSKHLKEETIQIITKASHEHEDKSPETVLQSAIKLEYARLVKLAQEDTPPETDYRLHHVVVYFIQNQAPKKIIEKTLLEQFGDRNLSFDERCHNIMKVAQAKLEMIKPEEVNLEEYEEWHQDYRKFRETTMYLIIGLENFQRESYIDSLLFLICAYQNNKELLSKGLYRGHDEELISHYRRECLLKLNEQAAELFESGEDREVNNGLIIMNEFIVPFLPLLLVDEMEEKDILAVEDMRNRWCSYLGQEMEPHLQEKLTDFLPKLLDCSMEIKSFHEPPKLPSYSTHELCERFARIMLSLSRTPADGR
PROTOCOL: USP25 activity measured using ubiquitin-rhodamine 110 method
Type: biochemical
ASSAY CONTEXT: purified USP25 15 nM, ubiquitin-rhodamine 110 125 nM, 30 min preincubation; read-out: Inhibitory activity against USP25 (IC50)
pIC50: −log10 of the molar value.

Some solved cases for reference:
# COMPOUND, pIC50
rows = [
    ("CNc1c(C(=O)NCCc2c[nH]c3ccccc23)sc2ncccc12", "5.00 to 5.30"),
    ("CNc1c(C(=O)NCCc2ccc(N3C[C@H]4CC[C@@H](C3)N4)cc2)sc2nc(C)c(F)cc12", "6.00 to 7.00"),
    ("CNc1c(C(=O)NCCc2ccc(C3CC4CC3CN4)cc2)sc2nc(C)ccc12 (stereo not shown)", "6.00 to 7.00"),
    ("CNc1c(C(=O)NCCc2ccc(N3C[C@H]4CC[C@@H](C3)N4)cc2)sc2nc(C#N)ccc12", "5.30 to 6.00"),
    ("CNc1c(C(=O)NCCc2coc3ccccc23)sc2nc(C)ccc12", "5.30 to 6.00"),
]

Query: Fill in reported pIC50 for this entry: CNc1c(C(=O)N[C@@H](Cc2ccc(N3C[C@H]4CC[C@@H](C3)N4)cc2)C(F)(F)F)sc2nc(C)ccc12
Response: 6.00 to 7.00

Query: Specify reported pIC50 for the compound shown: CNc1c(C(=O)NC[C@@H](F)c2ccc(N3C[C@H]4CC[C@@H](C3)N4)cc2)sc2nc(C)ccc12
Response: 6.00 to 7.00

Query: Give the value of pIC50 reported for the following: CCNc1c(C(=O)NCCc2ccc(N3C[C@H]4CC[C@@H](C3)N4)cc2)sc2nc(C)ccc12
Response: 5.00 to 5.30

Query: Look up pIC50 of CNc1c(C(=O)N[C@H](COC)Cc2c[nH]c3ccccc23)sc2nc(C)ccc12 and report it.
Response: < 5.00

Query: Tell us which pIC50 value is on record for CNc1c(C(=O)NCCc2c[nH]c3ccccc23)sc2nc(C)ccc12
Response: 5.30 to 6.00

Query: Answer with reported pIC50 of CNc1c(C(=O)NCCc2ccc(N3C[C@H]4CC[C@@H](C3)N4)cc2)sc2ncc(F)cc12
Response: < 5.00

Query: Query pIC50 for CNc1c(C(=O)NCCc2ccc(OC)c(OC)c2)sc2nc(C)ccc12
Response: < 5.00

Query: Specify measured pIC50 for CNc1c(C(=O)N[C@@H](C)Cc2ccc(N3C[C@H]4CC[C@@H](C3)N4)cc2)sc2nc(C)ccc12 .
Response: < 5.00

Query: Note down pIC50 recorded for CNc1ccc2c(NC)c(C(=O)NCCc3ccc(N4C[C@H]5CC[C@@H](C4)N5)cc3)sc2n1
Response: < 5.00

Query: Look up and state reported pIC50 for CNc1c(C(=O)NCCc2ccc(C3CCNCC3)cc2)sc2nc(C)ccc12
Response: 6.00 to 7.00

Query: Report pIC50, nothing else, for this compound: CNc1c(C(=O)N[C@@H](C)Cc2ccc(Br)cc2)sc2nc(C)ccc12
Response: < 5.00

Query: Look up and report measured pIC50 for this entry: CNc1c(C(=O)NCCc2ccc(N3CC4CCC(C3)N4)cc2)sc2nc(C(C)C)cnc12
Response: 6.00 to 7.00

Query: Complete the entry with pIC50 for CCCNc1c(C(=O)NCCc2ccc(N3C[C@H]4CC[C@@H](C3)N4)cc2)sc2nc(C)ccc12
Response: < 5.00

Query: State its pIC50 for this compound: CCc1ccc2c(NC)c(C(=O)NCCc3ccc(N4C[C@H]5CC[C@@H](C4)N5)cc3)sc2n1
Response: 5.30 to 6.00

Query: Return reported pIC50. Input compound: CNc1c(C(=O)N[C@@H]2Cc3ccc(N4CC5CCC(C4)N5)cc3C2)sc2nc(C)ccc12
Response: 5.00 to 5.30

Query: Indicate the recorded pIC50 value for this compound: CNc1c(C(=O)NC[C@H](C)c2cc(F)c(N3C[C@H]4CC[C@@H](C3)N4)cc2F)sc2nc(C)cnc12
Response: 6.00 to 7.00

Query: Quick one: give measured pIC50 for CNc1c(C(=O)NCCc2c[nH]c3ccccc23)sc2nc(C)cc(C)c12
Response: < 5.00

Query: Supply reported pIC50 belonging to this compound: CNc1c(C(=O)NCCc2cc(F)c(N3C[C@H]4CC[C@@H](C3)N4)cc2F)sc2nc(C)ccc12
Response: < 5.00

Query: Indicate the recorded pIC50 value for this compound: CNc1c(C(=O)NCCc2ccc(N3C[C@H]4CC[C@@H](C3)N4)cc2)sc2nc(Cl)ccc12
Response: 6.00 to 7.00

Query: // fetch pIC50 given entry CNc1c(C(=O)NCCc2ccc(N3C[C@H]4CC[C@@H](C3)N4)c(C3CC3)c2)sc2nc(C)ccc12
Response: 6.00 to 7.00
